Each recorded value in this set is attributed to PubChem BioAssay (NCI).

System: A549 NSCLC
Experiment: NCI tumour cell line growth inhibition, 48 h
observed-property: GI50

Previously resolved entries follow.
- compound: "C=C(CO)[C@@H]1CC[C@]2(COC3CCCCO3)CC[C@]3(C)[C@H](CC[C@@H]4[C@@]5(C)C=C(C=O)C(=O)C(C)(C)[C@@H]5CC[C@]43C)[C@@H]12 (stereo partly specified)"
  target-or-test-system: "A549 NSCLC"
  GI50: "0.495 µM"
- compound: "N#Cc1c(N)nc(N2CCOCC2)c(C#N)c1-c1ccccn1"
  target-or-test-system: "A549 NSCLC"
  GI50: "> 100 µM"
- compound: "CC(=O)O[C@H]1[C@@H]2OC(=O)C(CSc3ccccc3)[C@@H]2C[C@H]2O[C@]2(C)CC/C=C(\\C)CCC[C@@H]1C (stereo partly specified)"
  target-or-test-system: "A549 NSCLC"
  GI50: "4.34 µM"
- compound: "CO/N=C(\\COc1ccc2oc(-c3ccccc3)cc(=O)c2c1)c1ccc(OC)cc1"
  target-or-test-system: "A549 NSCLC"
  GI50: "24.4 µM"

Prompt: Which measured GI50 belongs to "NS(=O)(=O)c1ccc(N(/C=C/C(=O)C(F)(F)F)Cc2ccc(Cl)cc2)cc1" , tested on A549 NSCLC?
Response: 27.7 µM

Prompt: And what about the compound "NS(=O)(=O)NCCNc1nonc1C(=Nc1ccc(F)c(Br)c1)NO" ?
Response: 68.9 µM
